- Tested on: Malme-3M
- assay_protocol: NCI tumour cell line growth inhibition, 48 h
Calls of active or inactive are those of the source. No stated cut-off is given here; in the data, active = GI50 up to about 1.1 µM and inactive = higher.
Outcome field: choose from t for active, f for inactive

Fill in: this test's call for `CN(C)c1ccc(-c2ccc(N(C)C)c3n[se]nc23)c2n[se]nc12` is ___ f

Outcome logged for `c1ccc2c(c1)CCc1cc3cc4c(nc3nc1-2)-c1ccccc1CC4` in this assay: f

Field: outcome | Entry: `O=c1[nH]nc(-c2ccccc2)n1/N=C/c1ccncc1` f

What did the test return for `CSc1n[nH]c2[nH]nc(C)c12` ? f

// outcome(item) with item = `COc1ccc2nc3c([N+](=O)[O-])ccc4c3c(c2c1)N=CN4CCN(C)C` f

Identify the outcome logged in this assay for the molecule shown: N#CC1CCCCCCCCCCC(=O)N(CCCl)C1=O (stereo not given) f

Which outcome did this test record for the molecule `O=c1ssc(Cl)c1Cl` ? f

Returns: the outcome recorded for COC(=O)C1Cc2c(C)cccc2C1=O (stereo not given) in this assay. f

Which outcome was assigned to `CNC(=O)OCC1=C(COC(=O)NC)CN(c2ccccc2)C1` in this test? f

Given `Cn1cnc([N+](=O)[O-])c1Sc1nc2cc(Cl)c(F)cc2[nH]1` , state the outcome it received in this test. f

Outcome? CC(C)=CC1(C)/C(=N\O)C(C)(CC(C)C)C(=O)N1O (stereo not given) f

Assay result, entry `O=C1C(Cl)=C(NCCOCCO)C(=O)c2c(O)ccc(O)c21` — outcome? f

Per the records of this test, what outcome belongs to `OCCC/N=C1N=C(Cl)/C(=C\c2ccccc2)N\1` ? f

Give the logged outcome of this assay for the following molecule: O=C(O)C(O)c1ccc(F)cc1 (stereo not given) f

Please let me know the test result on file for `O=C1C[C@H](Sc2ccccc2)C2(OCCO2)[C@@H](Sc2ccccc2)C1` . f

How did this test come out for COc1ccc(COCC[C@H](C)OC2OC(CO[Si](C)(C)C(C)(C)C)C(OC(=O)CCCN=[N+]=[N-])C(OC(=O)CCCN=[N+]=[N-])C2OC(=O)CCCN=[N+]=[N-])cc1 (stereo not given in full) ? f

---

- Test system: OVCAR-3
- assay_protocol: NCI tumour cell line growth inhibition, 48 h
The source made the active and inactive calls. Rule as the data show it: active = GI50 up to about 1.1 µM and inactive = higher.
reported_endpoint: GI50

Recorded results for 3 compounds are shown here.
compound="C/C=C/C#CC#C/C=C/C=C/C(O)CCO (stereo not drawn)" reported_endpoint=GI50 readout_value="> 23.1 µM (inactive)"
compound=CC12c3c4cc(Br)cc3Oc3cc(Br)cc(c31)Oc1cc(Br)cc(c12)O4 reported_endpoint=GI50 readout_value="12.4 µM (inactive)"
compound=CN(C)CCCNc1c2c(=O)n(C)c(=O)nc-2n(C)c2ccccc12 reported_endpoint=GI50 readout_value="1.25 µM (inactive)"

What is its GI50 for OVCAR-3? Entry: `O=c1[nH]nc(-c2ccccc2)n1/N=C/c1ccncc1` > 100 µM (inactive)

// lookup GI50 | system=OVCAR-3 | key= `Nc1ncc(Sc2ccccc2C(=O)O)s1` > 100 µM (inactive)

Can you look up GI50 on OVCAR-3 for O=C(CCN1CCN(c2ccccc2)CC1)N1CCc2c([nH]c3ccccc23)C1c1cccnc1 (stereo not drawn) ? 16.7 µM (inactive)

For OVCAR-3, provide GI50 of `N#CCOc1ccc(/C=C/C(=O)c2ccc(Cl)cc2)cc1` please. 31.8 µM (inactive)

# get_value(readout= GI50, system= OVCAR-3) for CC(=O)Nc1ccc(C(=O)NN2C(=O)C(Cl)C2c2ccccc2O)cc1 (stereo not drawn) 3.26 µM (inactive)

State its GI50 on OVCAR-3: `CC12CC(Br)(Br)C(=O)C3C1CCCC32` 3.15 µM (inactive)

API: value(readout= GI50, system= OVCAR-3, query= C=CC(Br)(CBr)CCC1OC1(C)C (stereo not drawn) ) 19.5 µM (inactive)

Form field - read-out: GI50; system: OVCAR-3; submitted item: `c1ccc2c(c1)CCc1cc3cc4c(nc3nc1-2)-c1ccccc1CC4` > 100 µM (inactive)

Given the entry `O=C1NC(=S)NC(=O)C1=Cc1cccc2cc3ccccc3cc12` , what GI50 was observed with OVCAR-3? 1.76 µM (inactive)

Value wanted: GI50 (OVCAR-3) of entry CC1=N[C@](C)(C2CC3C=CC2C3=O)COC1=O (stereo partly drawn) > 100 µM (inactive)

Give GI50 (OVCAR-3) of the following compound: `O=[N+]([O-])c1ccccc1S(=O)(=O)c1cc(O)cc2c1NCCC2` 7.55 µM (inactive)

Hello, I am looking for reported GI50 with OVCAR-3 for CCOC(=O)C1=C(N2CCCC2)C(=O)C(C(=O)OCC)C1 (stereo not drawn) . Could you help? > 100 µM (inactive)

Form field - read-out: GI50; system: OVCAR-3; submitted item: `CCc1cccc(C)c1NC(C)=O` > 100 µM (inactive)

---

- Tested on: OVCAR-8
- assay_protocol: NCI tumour cell line growth inhibition, 48 h
The source made the active and inactive calls. Cut-off read from the data, not from the text of the source: active = GI50 up to about 1.1 µM and inactive = higher.
// classify into y for active, n for inactive

# count of solved cases: 9
compound=N#CC1(C#N)C(C#N)(C#N)C1(C#N)C(N)=O group=n
compound=CNC(SC)=C1C(=O)OC(C)(C)OC1=O group=n
compound="CCN(CC)c1ccc(C2NC(=O)c3ccccc3N2)cc1 (stereo not given)" group=n
compound="CC1C(c2ccccc2)N(C)C(c2ccccc2)C(C)C1(O)c1ccccc1 (stereo not given)" group=n
compound=COc1cc2c(cc1OCCCCCN1C(=O)c3cccc4cccc(c34)C1=O)N=C[C@@H]1CCCN1C2=O group=y
compound="COc1cc(CC2C(=O)OCC2Cc2ccc(OC)c(OC)c2)ccc1O (stereo not given)" group=n
compound=N#CCCN(CCC#N)c1ccc(/C=C2\N=C(c3ccccc3)N(NC(=O)c3ccncc3)C2=O)cc1 group=n
compound="O=C(NC(CCCCN1C(=O)c2ccccc2C1=O)P(=O)(Oc1ccccc1)Oc1ccccc1)OCc1ccccc1 (stereo not given)" group=n
compound=COC(=O)C1=C(\c2ccccc2)c2ccccc2C(=O)N(C2CCCCC2)/C=C\1 group=n

# input for lookup
# lookup: test call for COc1ccc2c(c1OC)C(Br)CCC(Br)(Br)C2=O (stereo not given) n

---

- System: LXFL 529
- assay_protocol: NCI tumour cell line growth inhibition, 48 h
Calls of active or inactive are those of the source. No stated cut-off is given here; in the data, active = GI50 up to about 1.1 µM and inactive = higher.
Your response should consist of one outcome taken from active, inactive

Example cases with answers are listed next.
compound="Cc1ccc(S(=O)(=O)C(CC(NC=O)S(=O)(=O)c2ccc(C)cc2)NC=O)cc1 (stereo not drawn)" group=inactive
compound="Cc1ccccc1N(CCC#N)C1=NN(C(=O)CC(=O)Nc2ccccc2)C(c2ccccc2)C1 (stereo not drawn)" group=inactive
compound=O=C(Nc1c(C(=O)NC2CCCCC2)[nH]c(=O)[nH]c1=O)c1ccc(Cl)cc1 group=inactive
compound="c1cncc(C2c3[nH]c4ccccc4c3CCN2CCN2CCCCC2)c1 (stereo not drawn)" group=inactive

// return assay outcome for COC(=O)C1=C(C(=O)OC)C(C(=O)OC)C(C(=O)OC)C(C(=O)OC)(C(=O)OC)C(C(=O)OC)=C1C(=O)OC (stereo not drawn) inactive

# outcome recorded in this test, key = `CC1=NN(C(=O)c2ccccc2O)C(=O)/C1=C/c1cccc(O)c1` active

Called result for NNC(=O)N/N=C1\C(=O)N(c2ccc(Cl)c(Cl)c2)C(=O)C(=O)C1c1nc2ccccc2s1 (stereo not drawn) inactive

Outcome logged for `CCOC(=O)/C(=C/c1cccc(C#N)c1)N(CC)CC` in this assay: inactive

Hello, I am checking results. What call was entered for `CCc1cccc(C)c1NC(C)=O` ? inactive

Record lookup: outcome of this test for `N#C/C(=C1/Sc2c(nc[nH]c2=O)N1c1ccccc1)c1nc2ccccc2[nH]1` ? inactive

Given `CC12CC(Br)(Br)C(=O)C3C1CCCC32` , state the outcome it received in this test. inactive

Which outcome was entered for the compound `CCC(=O)CC(=O)CCC(=O)Nc1cc(C)ccc1C` in this test? inactive

Just curious, what result did c1ccc2cc(C3NCCc4nc[nH]c43)ccc2c1 (stereo not drawn) get here? inactive

What was the test verdict on `COc1cc(C(=O)C/C(CCC(=O)Nc2ccc(Cl)cc2Cl)=N/Nc2nnc(C)n2N)ccc1O` ? inactive

Dear colleague, could you share the recorded outcome for `O=C1C=C(c2[nH]c3ccccc3c2C2=CC(=O)c3ccccc3C2=O)C(=O)c2ccccc21` when you have a moment? inactive

Answer briefly: the call reported for CC12CCC([C@H](N3CCOCC3)/C1=N\OCCN1CCCC1)C2(C)C (stereo partly drawn) in this assay. inactive

// param item: `C/C(=N\NS(=O)(=O)c1ccc(C)cc1)c1cc2ccccc2n1C` ; yields the recorded call inactive

Kindly provide the recorded test outcome for the following compound: `CC1=C(C(=O)Nc2ccccc2C)C(c2ccco2)C(C(=O)Nc2ccccc2C)=C(C)N1C` inactive
